As shown below, each of these compounds has a reported EC50 value.
system: Human immunodeficiency virus 1; assay: Antiviral activity against wild type HIV1 3B infected in human MT4 cells assessed as inhibition of virus-induced cytopathic effect after 5 days by MTT assay; format: functional, cell-based; settings: Human immunodeficiency virus 1, 3B, MT4, 120 h
The reply should be a number in µM, with the unit left off.

Please review the entries below; each comes with its answer.
Query the reported EC50 for Human immunodeficiency virus 1; item: N#Cc1ccc(Nc2nccc(NS(=O)(=O)c3ccc(C#N)cc3)n2)cc1
39.4

Query the reported EC50 for Human immunodeficiency virus 1; item: O=c1[nH]cnc2c1ncn2[C@H]1CC[C@@H](CO)O1 [DIDANOSINE]
76

Query the reported EC50 for Human immunodeficiency virus 1; item: Nc1ccn([C@@H]2CS[C@H](CO)O2)c(=O)n1 [LAMIVUDINE]
2.54

Query the reported EC50 for Human immunodeficiency virus 1; item: CC(C)(C)c1ccc(S(=O)(=O)Nc2ccnc(Nc3ccc(C#N)cc3)c2)cc1
4.92

Query the reported EC50 for Human immunodeficiency virus 1; item: Cc1cc(C#N)cc(C)c1Oc1nc(Nc2ccc(C#N)cc2)nc(N)c1Br [ETRAVIRINE]
0.004

Turning now to a further record.
Query the reported EC50 for Human immunodeficiency virus 1; item: Cc1cc(C)c(S(=O)(=O)Nc2ccnc(Nc3ccc(C#N)cc3)c2)c(C)c1
6.08
